Test system: Trypanosoma brucei rhodesiense
method notes: Antiprotozoal activity against blood stream form of Trypanosoma brucei rhodesiense STIB900 after 72 hrs by alamar blue assay
Assay type: functional, organism-based
assay setup: STIB900, 72 h
Listing: IC50 of selected molecules

| molecule | target desc | IC50, µM |
| --- | --- | --- |
| CC1=C(O)/C(=C/[C@H](C)CCC/C(C)=C/CCc2coc(Cc3ccoc3)c2)OC1=O | Trypanosoma brucei rhodesiense | 97 |
| CC1=C(O)/C(=C/[C@H](C)CCC/C(C)=C/CCc2coc(CC3=CCN(CC(=O)O)C3=O)c2)OC1=O | Trypanosoma brucei rhodesiense | 130 |
| Nc1nc(N)nc(Nc2ccc([As]3SCC(CO)S3)cc2)n1 (stereo not given) | Trypanosoma brucei rhodesiense | 0.015 |
| CC1=C(O)/C(=C/[C@H](C)CC/C=C(/C)CCCc2coc(Cc3ccoc3)c2)OC1=O | Trypanosoma brucei rhodesiense | 65 |
| CC1=C(O)/C(=C/[C@H](C)CCC/C(C)=C/CCC2=CC(Cc3ccoc3)N(CC(=O)O)C2=O)OC1=O (stereo not given in full) | Trypanosoma brucei rhodesiense | 130 |
